# pEC50 listing for each entry below
- System Under Test: PPAR Alpha (Homo sapiens, UniProt Q07869)
- Assay Remarks: PathHunter NHR protein interaction / nuclear translocation agonist test, PPAR Alpha
- Type: cell-based
- Recorded Conditions: agonist mode; read-out: PPAR Alpha EC50
pEC50: −log10 of the molar value.
Parameter: pEC50

{"Molecule": "CSc1ccc(C(=O)[C@@H]2CN(C(=O)Oc3ccc(Cl)c(Cl)c3)C[C@H]2c2cc(C)c(OC(C)(C)C(=O)O)c(C)c2)cc1 (single isomer, unassigned)", "Parameter": "pEC50", "Value": "> 7.00"}
{"Molecule": "COCCN1CC(CCc2cc(C)c(OC(C)(C)C(=O)O)c(C)c2)C(C(=O)c2ccc(SC)cc2)C1 (stereo not drawn)", "Parameter": "pEC50", "Value": "6.60 to 6.70"}
{"Molecule": "CSc1ccc(C(=O)[C@@H]2CN(C(=O)Oc3ccc(Cl)cc3Cl)C[C@H]2c2cc(C)c(OC(C)(C)C(=O)O)c(C)c2)cc1 (single isomer, unassigned)", "Parameter": "pEC50", "Value": "> 7.00"}

----------
- System Under Test: PPAR Alpha (Homo sapiens, UniProt Q07869)
- Sequence (Q07869 1-468): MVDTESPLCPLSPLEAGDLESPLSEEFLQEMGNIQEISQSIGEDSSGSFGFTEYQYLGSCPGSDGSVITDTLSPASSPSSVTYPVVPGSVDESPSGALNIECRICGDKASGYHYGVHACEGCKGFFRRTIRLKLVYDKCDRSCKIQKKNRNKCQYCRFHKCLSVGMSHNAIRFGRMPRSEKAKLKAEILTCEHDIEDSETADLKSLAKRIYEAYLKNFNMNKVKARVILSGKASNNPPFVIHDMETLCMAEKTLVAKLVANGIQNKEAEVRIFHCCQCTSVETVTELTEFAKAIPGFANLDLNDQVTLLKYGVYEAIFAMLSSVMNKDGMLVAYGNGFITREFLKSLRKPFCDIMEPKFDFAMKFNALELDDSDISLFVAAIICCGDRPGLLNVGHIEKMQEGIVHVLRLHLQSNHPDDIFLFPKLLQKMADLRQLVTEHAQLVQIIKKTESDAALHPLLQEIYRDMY
- Assay Remarks: PathHunter NHR protein interaction / nuclear translocation agonist test, PPAR Alpha
- Type: cell-based
- Recorded Conditions: read-out: PPAR Alpha Maximum Activation Response %
# Emax listing for each entry below

{"Molecule": "CSc1ccc(C(=O)C2CN(C(=O)Oc3ccccc3)CC2Cc2ccc(OC(C)(C)C(=O)O)cc2F)cc1 (single isomer, unassigned)", "Emax": "80 to 100%"}
{"Molecule": "CSc1ccc(C(=O)[C@H]2CN(C(=O)Nc3ccc(Cl)cc3)C[C@@H]2c2cc(C)c(OC(C)(C)C(=O)O)c(C)c2)cc1 (racemic)", "Emax": "80 to 100%"}
{"Molecule": "COCCN1CC(CCc2cc(C)c(OC(C)(C)C(=O)O)c(C)c2)C(C(=O)c2ccc(SC)cc2)C1 (stereo not shown)", "Emax": "50 to 80%"}
{"Molecule": "CSc1ccc(C(=O)[C@H]2CN(C)C[C@@H]2CCc2cc(C)c(OC(C)(C)C(=O)O)c(C)c2)cc1 (racemic)", "Emax": "< 50%"}

----------
- System Under Test: PPAR Gamma (Homo sapiens, UniProt P37231)
- Sequence (P37231 whole entry): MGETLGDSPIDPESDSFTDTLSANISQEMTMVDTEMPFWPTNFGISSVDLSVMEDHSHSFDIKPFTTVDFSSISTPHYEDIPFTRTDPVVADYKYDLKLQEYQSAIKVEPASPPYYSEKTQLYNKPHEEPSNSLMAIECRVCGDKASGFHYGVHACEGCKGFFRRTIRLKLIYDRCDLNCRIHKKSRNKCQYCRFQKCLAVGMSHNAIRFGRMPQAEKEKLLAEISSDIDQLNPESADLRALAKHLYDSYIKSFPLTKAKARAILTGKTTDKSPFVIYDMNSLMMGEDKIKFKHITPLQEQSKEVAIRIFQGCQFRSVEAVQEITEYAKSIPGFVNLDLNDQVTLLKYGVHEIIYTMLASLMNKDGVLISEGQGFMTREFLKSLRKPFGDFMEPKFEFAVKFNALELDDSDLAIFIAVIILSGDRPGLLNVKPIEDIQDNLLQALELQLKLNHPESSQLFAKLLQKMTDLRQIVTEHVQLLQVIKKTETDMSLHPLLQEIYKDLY
- Assay Remarks: PathHunter NHR protein interaction / nuclear translocation agonist test, PPAR Gamma
- Assay type: cell-based
- Recorded Conditions: agonist mode; read-out: PPAR Gamma EC50
# EC50 listing for each entry below
Parameter: EC50

{"Molecule": "CSc1ccc(C(=O)C2CN(C(=O)Oc3ccccc3)CC2CCc2ccc(OC(C)(C)C(=O)O)c(F)c2)cc1 (single isomer, unassigned) [Compound 82]", "Parameter": "EC50", "Value": "200 to 250 nM"}
{"Molecule": "Cc1cc(CC2CN(C(=O)Oc3ccccc3)CC2C(=O)c2ccc(Cl)cc2)cc(C)c1OC(C)(C)C(=O)O (single isomer, unassigned) [Compound 70]", "Parameter": "EC50", "Value": "150 to 200 nM"}
{"Molecule": "Cc1cc(CC[C@H]2CN(C(=O)Oc3ccccc3)C[C@@H]2C(=O)c2ccc(S(C)(=O)=O)cc2)cc(C)c1OC(C)(C)C(=O)O (racemic) [Compound 68]", "Parameter": "EC50", "Value": "> 250 nM"}
